These data points were gathered from ChEMBL document CHEMBL3593172.

# System: HL-60
# assay-explanation: Cytotoxicity against human HL60 cells assessed as growth inhibition at 100 uM after 24 to 48 hrs by MTT assay relative to control
# Format: functional
# condition-info: read-out: GI
parameter-measured: inhibition of growth at 100 µM (%)
Reply numerically in %, unit not repeated.

Query :: Look up and report inhibition of growth at 100 µM, with HL-60 as system, for O=C(c1cccnc1Cl)N(c1ccccc1)c1ccnc2ccc(-c3ccc(O)cc3)cc12
Result :: 95

Query :: Look up and report inhibition of growth at 100 µM, with HL-60 as system, for Cc1ccc(S(=O)(=O)N(c2ccccc2)c2ccnc3ccc(-c4ccc(O)cc4)cc23)cc1
Result :: 92

Query :: Look up and report inhibition of growth at 100 µM, with HL-60 as system, for COc1ccc(S(=O)(=O)N(c2ccccc2)c2ccnc3ccc(-c4ccc(O)cc4)cc23)cc1
Result :: 89

Query :: Look up and report inhibition of growth at 100 µM, with HL-60 as system, for O=S(=O)(c1ccccc1)N(c1ccccc1)c1ccnc2ccc(-c3ccc(O)cc3)cc12
Result :: 91

###

The entries below are paired with their reported inhibition of growth at 100 µM.
# assay-explanation: Cytotoxicity against human MIAPaCa2 cells assessed as growth inhibition at 100 uM after 24 to 48 hrs by MTT assay relative to control
# Assay type: functional
# condition-info: MIA PaCa-2, read-out: GI
Reply numerically in %, unit not repeated.

Query :: Item COc1ccc(-c2ccc3nccc(Nc4ccccc4)c3c2)cc1 : provide inhibition of growth at 100 µM
Result :: 55

Query :: Item N#Cc1ccc(S(=O)(=O)N(c2ccccc2)c2ccnc3ccc(-c4ccc(O)cc4)cc23)cc1 : provide inhibition of growth at 100 µM
Result :: 64

Query :: Item CC(C)(C)c1ccc(S(=O)(=O)N(c2ccccc2)c2ccnc3ccc(-c4ccc(O)cc4)cc23)cc1 : provide inhibition of growth at 100 µM
Result :: 90

Query :: Item Cc1ccc(S(=O)(=O)N(c2ccccc2)c2ccnc3ccc(-c4ccc(O)cc4)cc23)cc1 : provide inhibition of growth at 100 µM
Result :: 89

Query :: Item O=S(=O)(c1ccc(F)cc1F)N(c1ccccc1)c1ccnc2ccc(-c3ccc(O)cc3)cc12 : provide inhibition of growth at 100 µM
Result :: 87

Query :: Item Nc1ccc(S(=O)(=O)N(c2ccccc2)c2ccnc3ccc(-c4ccc(O)cc4)cc23)cc1 : provide inhibition of growth at 100 µM
Result :: 85

Query :: Item O=C(c1cccnc1Cl)N(c1ccccc1)c1ccnc2ccc(-c3ccc(O)cc3)cc12 : provide inhibition of growth at 100 µM
Result :: 89

Query :: Item O=[N+]([O-])c1cc(S(=O)(=O)N(c2ccccc2)c2ccnc3ccc(-c4ccc(O)cc4)cc23)ccc1C(F)(F)F : provide inhibition of growth at 100 µM
Result :: 79

###

# Test system: HepG2
# assay-explanation: Cytotoxicity against human HepG2 cells assessed as growth inhibition at 10 uM after 24 to 48 hrs by MTT assay relative to control
# Format: functional
# condition-info: read-out: GI
The entries below are paired with their reported inhibition of growth at 10 µM.
Reply numerically in %, unit not repeated.

Known results for molecules:
{"item-smiles": "CC(C)(C)c1ccc(S(=O)(=O)N(c2ccccc2)c2ccnc3ccc(-c4ccc(O)cc4)cc23)cc1", "parameter-measured": "inhibition of growth at 10 µM", "measurement-unit": "%", "assay-value": 14}
{"item-smiles": "O=S(=O)(c1ccc(F)cc1)N(c1ccccc1)c1ccnc2ccc(-c3ccc(O)cc3)cc12", "parameter-measured": "inhibition of growth at 10 µM", "measurement-unit": "%", "assay-value": 1}
{"item-smiles": "COc1ccc(-c2ccc3nccc(Nc4ccccc4)c3c2)cc1", "parameter-measured": "inhibition of growth at 10 µM", "measurement-unit": "%", "assay-value": 19}
{"item-smiles": "O=S(=O)(c1ccccc1)N(c1ccccc1)c1ccnc2ccc(-c3ccc(O)cc3)cc12", "parameter-measured": "inhibition of growth at 10 µM", "measurement-unit": "%", "assay-value": 40}
{"item-smiles": "Nc1ccc(S(=O)(=O)N(c2ccccc2)c2ccnc3ccc(-c4ccc(O)cc4)cc23)cc1", "parameter-measured": "inhibition of growth at 10 µM", "measurement-unit": "%", "assay-value": 59}
{"item-smiles": "O=C(c1ccccc1F)N(c1ccccc1)c1ccnc2ccc(-c3ccc(O)cc3)cc12", "parameter-measured": "inhibition of growth at 10 µM", "measurement-unit": "%", "assay-value": 22}
{"item-smiles": "CC(=O)Nc1ccc(S(=O)(=O)N(c2ccccc2)c2ccnc3ccc(-c4ccc(O)cc4)cc23)cc1", "parameter-measured": "inhibition of growth at 10 µM", "measurement-unit": "%", "assay-value": 5}
{"item-smiles": "Cc1c(C)c(C)c(S(=O)(=O)N(c2ccccc2)c2ccnc3ccc(-c4ccc(O)cc4)cc23)c(C)c1C", "parameter-measured": "inhibition of growth at 10 µM", "measurement-unit": "%", "assay-value": 1}

Query :: Item O=S(=O)(c1ccc2c(c1)OCCO2)N(c1ccccc1)c1ccnc2ccc(-c3ccc(O)cc3)cc12 : provide inhibition of growth at 10 µM
Result :: 46
